The entries below are paired with their reported Kd.
- MEASURED_ON: T1, rhesus monkey transferrin receptor (rhTfR) fused to EGFP, on CHO cells (rhesus monkey)
- T1 construct: whole, on cells; also called rhesus monkey TfR
- ASSAY_EXPLANATION: apparent Kd, flow cytometry, CHO cells
Quick note: give the figure in nM, leave out the unit.

The following binders have reported results that may help.
C3 (VHH) VHH: EVQLVQSGGGLVQAGGSLRLSCAASGRDFSDTSMAWHRQAPGKERLWVAGIRSGSTSTSYADSVKGRFTISRDDAKNTVYLQMDNLTPEDTAVYFCYSKGYWGQGTQVTVSS :: 4230
C5^V26 (VHH) VHH: EVQLVESGGGVVQPGGSLKLSCVASGTDFSINFIRWYRQAPGKQREFVAGFTATGNTNYADSMKGRFTISRDNTKNAVYLQIDSLKPEDTAVYYCYVLDKWGQGTQVTVSS :: 335
VHH A4 (C5^V4) (VHH) VHH: EVQLVESGGGVVQPGGSLKLSCVASGTDFSINFIRWYRQAPGKQREFVAGFTATGATNYADSMKGRFTISRDNTKNAVYLQIDSLKPEDTAVYYCYMLDKWGQGTQVTVSS :: 3.4
C5^V13h20 (VHH) VHH: EVQLVESGGGVVQPGGSLRLSCAASGTDFSINFIRWYRQAPGKGLEFVAGFSATGNTNYADSVKGRFTISRDNAKNAVYLQMNSLRPEDTAVYYCYMLDKWGQGTQVTVSS :: 549
B8^V7 (VHH) VHH: EVQLVESGGGVVQPGGSLRLSCAASGEIFSINFMRWYRQAPGKQREWVAGFTRDGYTNYPDSAKGRFTISRDNAKNTVYLQIDSLKPEDTAVYYCYMLDTWGQGTQVTVSS :: 2.6
B8^V8 (VHH) VHH: EVQLVESGGGVVQPGGSLRLSCAASGEIFSINFMRWYRQAPGKQREWVAGFTRDGSLNYPDSAKGRFTISRDNAKNTVYLQIDSLKPEDTAVYYCYMLDTWGQGTQVTVSS :: 2.1
B8^V36 (VHH) VHH: EVQLVESGGGVVQPGGSLRLSCAASGEIFSINVMRWYRQAPGKQREWVAGFTRDGSTNYPDSAKGRFTISRDNAKNTVYLQIDSLKPEDTAVYYCYMLDTWGQGTQVTVSS :: 130
B8^V37 (VHH) VHH: EVQLVESGGGVVQPGGSLRLSCAASGEIFSINFMRWYRQAPGKQREWVAGFTRDGSTNYPDSAKGRFTISEDNAKNTVYLQIDSLKPEDTAVYYCYMLRTWGQGTQVTVSS :: 334

Please find the next binder below.
Entry under review: B8^V16 (VHH) VHH: EVQLVESGGGVVQPGGSLRLSCAASGEIFSINFMRWYRQAPGKQREQVAGFTRDGSTNYPDSAKGRFTISRDNAKNTVYLQIDSLKPEDTAVYYCYMLDTWGQGTQVTVSS . Reported Kd? 307
